# experimental-target: human S1P1 receptor (Homo sapiens, UniProt P21453)
# Construct: membranes were used
# Sequence (P21453 whole entry): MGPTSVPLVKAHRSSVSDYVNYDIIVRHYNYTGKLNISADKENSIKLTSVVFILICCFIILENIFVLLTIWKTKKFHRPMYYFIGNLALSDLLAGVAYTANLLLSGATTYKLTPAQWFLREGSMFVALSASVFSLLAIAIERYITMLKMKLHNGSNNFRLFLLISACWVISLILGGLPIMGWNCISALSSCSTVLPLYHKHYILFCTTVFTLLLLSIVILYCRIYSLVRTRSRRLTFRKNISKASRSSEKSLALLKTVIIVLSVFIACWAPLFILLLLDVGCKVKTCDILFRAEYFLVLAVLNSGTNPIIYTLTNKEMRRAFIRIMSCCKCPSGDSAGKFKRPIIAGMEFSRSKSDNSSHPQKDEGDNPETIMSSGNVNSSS
# protocol: GTP γ35S binding assay for S1P1 activity
# condition-set: activity potency from GTP γ35S binding; 5 μg membrane protein, 30 min at 25° C., test compounds 0.08 to 5,000 nM
pEC50: −log10 of the molar value.
recorded-endpoint: pEC50

Record for CNc1ncccc1-c1noc(C(Cc2ccc(C)c(C)c2)c2ccccc2)n1 (centres unmarked) under target or system human S1P1 receptor (Homo sapiens, UniProt P21453): pEC50 reported as 6.04

(1) CNc1ncccc1-c1noc(C(Cc2ccc(C)cc2)c2cccc(Cl)c2)n1 (centres unmarked)
(2) CNc1ncccc1-c1noc(C(Cc2ccc(C)cc2)c2ccsc2)n1 (centres unmarked)
// pick min by pEC50: 1 , 2 In your reply, give the label of the chosen option.
2
(2: 6.27, 1: 7.11)

###

# experimental-target: human S1P1 receptor (Homo sapiens)
# Construct: membranes were used
# protocol: GTP γ35S binding assay for S1P1 activity
# condition-set: activity potency from GTP γ35S binding; 5 μg membrane protein, 30 min at 25° C., test compounds 0.08 to 5,000 nM
recorded-endpoint: EC50 (µM)

# EC50 of CNc1ncccc1-c1noc(C(Cc2ccc(C)c(C)c2)c2ccc(Cl)cc2)n1 (centres unmarked) = 0.47

(a) CNc1ncccc1-c1noc(C(Cc2ccc(CC(C)C)cc2)c2cccc(Cl)c2)n1 (centres unmarked)
(b) CNc1ncccc1-c1noc(C(Cc2ccc(C)c(C)c2)c2cccc(OC)c2)n1 (centres unmarked)
// pick min by EC50: a , b In your reply, give the label of the chosen option.
b

(1) CNc1ncccc1-c1noc(C(Cc2ccc(C)c(C)c2)c2cccc(Br)c2)n1 (centres unmarked)
(2) CNc1ncccc1-c1noc(C(Cc2ccc(C)c(C)c2)c2cncc(Cl)c2)n1 (centres unmarked)
(3) CNc1ncccc1-c1noc(C(Cc2ccc(C)c(C)c2)c2ccc(Cl)nc2)n1 (centres unmarked)
Rank descending by EC50. Ranked list of labels, please, in the requested order.
3, 1, 2
(3: 0.274 µM, 1: 0.0506 µM, 2: 0.0145 µM)

(A) CNc1ncccc1-c1noc(C(Cc2cc(C)cc(C)c2)c2ccc(Cl)nc2)n1 (centres unmarked)
(B) CNc1ncccc1-c1noc(C(Cc2ccccc2)c2cccc(Cl)c2)n1 (centres unmarked)
Could you kindly indicate whether A or B has the higher EC50 value? In your reply, give the label of the chosen option.
A
(A: 2.76 µM, B: 0.112 µM)

(A) CNc1ncccc1-c1noc(C(Cc2ccc(C)c(C)c2)c2cc(C)cc(C)c2)n1 (centres unmarked)
(B) CNc1ncccc1-c1noc(C(CC2CCCCC2)c2cccc(Cl)c2)n1 (centres unmarked)
(C) CNc1ncccc1-c1noc(C(Cc2ccc(C)c(C)c2)c2cccc([N+](=O)[O-])c2)n1 (centres unmarked)
(D) CNc1ncccc1-c1noc(C(Cc2ccc(C)c(C)c2)c2ccc(OC)cc2)n1 (centres unmarked)
Rank descending by EC50. Ranked list of labels, please, in the requested order.
D, B, A, C
(D: 1.33 µM, B: 0.348 µM, A: 0.161 µM, C: 0.0864 µM)

###

# experimental-target: human S1P1 receptor (Homo sapiens)
# Construct: membranes were used
# protocol: GTP γ35S binding assay for S1P1 activity
# condition-set: activity potency from GTP γ35S binding; 5 μg membrane protein, 30 min at 25° C., test compounds 0.08 to 5,000 nM
recorded-endpoint: EC50 (nM)

# EC50 of CNc1ncccc1-c1noc(C(Cc2cccc(C)c2)c2cccc(Cl)c2)n1 (centres unmarked) = 125

(1) CNc1ncccc1-c1noc(C(Cc2ccc(C)c(C)c2)c2ccsc2)n1 (centres unmarked) [Compound 29]
(2) CNc1ncccc1-c1noc(C(Cc2ccc(C)c(C)c2)c2cccc(C(F)(F)F)c2)n1 (centres unmarked)
(3) CNc1ncccc1-c1noc(C(Cc2ccccc2)c2ccccc2)n1 (centres unmarked) [Compound 24]
(4) CCc1cccc(C(Cc2ccc(C)c(C)c2)c2nc(-c3cccnc3NC)no2)c1 (centres unmarked)
List the 4 entries from lowest EC50 to highest EC50 value. Ranked list of labels, please, in the requested order.
4, 2, 1, 3
(4: 61.8 nM, 2: 167 nM, 1: 296 nM, 3: 1240 nM)
